Just for reference, ChEMBL document CHEMBL6109076 is where these values come from.

Assay: Selectivity index, ratio of CC50 for cytotoxicity against human MRC5 cells to EC50 for antiviral activity against Enterovirus A71 infected in human MRC5 cells
Assay type: toxicity, cell-based
Conditions: read-out: Selectivity Index
result-type: selectivity ratio

Recorded selectivity ratio, per entry:
{"columns": ["molecular-string", "selectivity ratio"],
 "data": [
  ["Nc1ncc(-c2ccc(CSc3ccc(-c4ccc(CO)cc4)cn3)cc2)cn1", "> 54"],
  ["Cn1cc(-c2ccc(CSc3ccc(-c4ccc5ccccc5c4)cn3)cc2)cn1", "> 1.8"],
  ["c1ccc2cc(-c3ccc(SCc4ccc(-n5cncn5)cc4)nc3)ccc2c1", "> 12"],
  ["OCc1ccc(-c2ccc(SCc3ccc(-n4cncn4)cc3)nc2)cc1", "> 181"],
  ["OCc1cccc(-c2ccc(SCc3ccc(-n4cncn4)cc3)nc2)c1", "> 1.8"]
]}

selectivity ratio reading for c1ccc2cc(-c3ccc(SCc4ccc(-n5cncn5)cc4)cc3)ncc2c1 : > 25

====

# selectivity ratio listing for each entry below
Assay: Selectivity index, ratio of CC50 for cytotoxicity against human RD cells to EC50 for antiviral activity against Enterovirus A71 infected in human RD cells

// known answers, use as guide
{"columns": ["molecular-string", "result"],
 "data": [
  ["OCc1cccc(-c2ccc(SCc3ccc(-n4cncn4)cc3)nc2)c1", "> 14"],
  ["Cn1cc(-c2ccc(CSc3ccc(-c4ccc5ccccc5c4)cn3)cc2)cn1", "> 3.3"]
]}

The reported selectivity ratio of the compound c1ccc2cc(-c3ccc(SCc4ccc(-n5cncn5)cc4)nc3)ccc2c1 was 15.4

====

Test: Selectivity index, ratio of CC50 for cytotoxicity against human RD cells to EC50 for antiviral activity against Enterovirus A71 infected in human RD cells
result-type: selectivity ratio
Give your answer as a number; write no unit.

Note to self: selectivity ratio recorded for c1ccc2cc(-c3ccc(SCc4ccc(-n5cncn5)cc4)cc3)ncc2c1 was 6.62

Memo: O=C1NC(SCc2ccc(-n3cncn3)cc2)=N/C1=C\c1c[nH]c2ccccc12 , reported selectivity ratio: 20.7

Quick note, selectivity ratio for Nc1ncc(-c2ccc(CSc3ccc(-c4ccc(CO)cc4)cn3)cc2)cn1 landed at 1.81

====

Listing of entries alongside the reported CC50.
Assay: Cytotoxicity against human RD cells
Format: toxicity, cell-based

{"columns": ["molecular-string", "CC50"],
 "data": [
  ["CCOc1noc2cc(OCCC3CCN(c4ccc(C)nn4)CC3)ccc12", "> 63 µM"]
]}

Entry Cc1noc(C)c1-c1ccc(CSc2ccc(-c3ccc4ccccc4c3)cn2)cc1 , CC50 reported as > 40 µM

Lab note: measured CC50 of Cn1cc(-c2ccc(CSc3ccc(-c4ccc5ccccc5c4)cn3)cc2)cn1 was > 40 µM

// recorded CC50 for OCc1cccc(-c2ccc(SCc3ccc(-n4cncn4)cc3)nc2)c1 : > 40 µM

Looking up c1ccc2cc(-c3ccc(SCc4ccc(-n5cncn5)cc4)nc3)ncc2c1 , I found its CC50 recorded as > 40 µM
